Target: Human GPR120 short form (Homo sapiens)
Construct: expressed in transfected cells
Sequence (Q5NUL3 whole entry): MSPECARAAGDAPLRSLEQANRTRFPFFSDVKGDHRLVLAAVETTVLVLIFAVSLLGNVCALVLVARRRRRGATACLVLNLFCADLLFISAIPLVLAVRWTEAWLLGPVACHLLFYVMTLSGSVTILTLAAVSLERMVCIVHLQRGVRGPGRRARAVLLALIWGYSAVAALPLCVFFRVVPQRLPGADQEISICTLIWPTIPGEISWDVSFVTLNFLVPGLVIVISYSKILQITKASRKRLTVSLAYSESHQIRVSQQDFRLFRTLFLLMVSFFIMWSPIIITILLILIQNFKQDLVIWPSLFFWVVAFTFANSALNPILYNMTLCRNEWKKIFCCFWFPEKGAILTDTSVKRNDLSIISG
Experiment: Human GPR120 calcium flux assay, Procedure Calcium B (4200 cells/well)
Type: cell-based
pEC50: −log10 of the molar value.
Classify by measured pEC50: 1 if it is equal to or exceeds 6, 0 if it is smaller.

COMPOUND	CLASSIFICATION
Cc1ccc(C2=C(COc3c(F)cc(CCC(=O)O)cc3F)CCC2)cc1C	1
Cc1ccc(C2=C(COc3ccc(CCC(=O)O)c(F)c3F)CCC2)cc1F	1
O=C(O)CCc1ccc(OCC2=C(CCc3ccccc3)CCC2)cc1C(F)(F)F	0
Cc1c(CCC(=O)O)ccc(OCC2=C(c3ccc(I)cc3)CCC2)c1C	1
O=C(O)CCc1ccc(OCC2=C(c3ccc(Cl)cc3)CCCC2)c2c1CCC2	1
Cc1c(CCC(=O)O)ccc(OCC2=C(c3ccc(Cl)cc3)CCC(C(C)C)C2)c1C (centres unmarked)	1
O=C(O)CCc1ccc(OCC2=C(C3CCCC3)CCCCC2)cc1F	1
N#Cc1cc(OCC2=C(c3ccc(F)cc3)CCC2)ccc1CCC(=O)O	0
Cc1ccc(C2=C(COc3cc(C)c(CCC(=O)O)cc3F)CCC2)cc1	1
O=C(O)CCc1ccc(OCC2=C(Cc3ccccc3F)CCC2)cc1Cl	0
Cc1cc(CCC(=O)O)ccc1OCC1=C(c2ccc(F)c(F)c2)CC(F)(F)C1	1
O=C(O)CCc1ccc(OCC2=C(C3C=CCC3)CCC2)cc1 (centres unmarked)	1
O=C(O)CCc1cc(F)c(OCC2=C(c3ccc(Cl)cc3)CCC(F)(F)C2)c(F)c1	1
